target: UniProt:P18871
pKi: −log10 of the molar value.
Threshold rule: pKi greater than or equal to 6 is Condition met; below that, Condition not met.

Use the examples below as a reference point.
CC(C)NCC(O)c1ccc(O)c(O)c1 (stereo not drawn) [Isoproterenol,(+)] | Condition not met
Brc1c(NC2=NCCN2)ccc2nccnc12 | Condition met
CNCC(O)c1ccc(O)c(O)c1 (centres undefined) [EPINEPHRINE] | Condition met
NC(N)=NN=Cc1c(Cl)cccc1Cl | Condition met
Nc1cc(Cl)c(N=C2NCCN2)c(Cl)c1 | Condition met

With those in mind, consider the next compound.
Reported pKi reaches at least 6 for NCC(O)c1ccc(O)c(O)c1 (stereo not drawn) [Noradrenaline,(+)] ?
Condition not met

====

target: Alpha-2A adrenergic receptor (Sus scrofa, UniProt P18871)
Sequence (P18871 16-465): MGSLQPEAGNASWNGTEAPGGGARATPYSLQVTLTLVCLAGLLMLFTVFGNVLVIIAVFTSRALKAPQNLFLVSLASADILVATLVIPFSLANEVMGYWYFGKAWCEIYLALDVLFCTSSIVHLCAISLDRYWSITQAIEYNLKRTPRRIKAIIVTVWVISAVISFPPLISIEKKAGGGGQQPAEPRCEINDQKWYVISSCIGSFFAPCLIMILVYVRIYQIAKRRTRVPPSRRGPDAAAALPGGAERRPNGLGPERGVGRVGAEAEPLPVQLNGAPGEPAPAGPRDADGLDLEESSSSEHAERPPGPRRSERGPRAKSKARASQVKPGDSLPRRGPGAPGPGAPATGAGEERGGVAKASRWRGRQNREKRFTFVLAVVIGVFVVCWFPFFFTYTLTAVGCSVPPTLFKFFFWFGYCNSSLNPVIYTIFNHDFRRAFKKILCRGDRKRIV
readout_type: pKi
Answers are plain numbers, as −log10 of the molar value.

Here are 2 molecules together with their reported answers.
Clc1cc(I)cc(Cl)c1N=C1NCCN1 [Iodoclonidine-p] | 7.29
Clc1cccc(Cl)c1N=C1NCCN1 [2-(2,6-dichloroanilino)-2-imidazoline] | 7.07

Now let's try a different one.
Fill blank: measured pKi of the molecule Cc1cccc(C)c1N=C1NCCCS1 is ____.
5.50
